Assay Comment: clinical
Experimental Context: human, in vivo, iv
Endpoint Name: fraction unbound

- Compound: "C[C@H](O)C(=O)Nc1c(I)c(C(=O)NC(CO)CO)c(I)c(C(=O)NC(CO)CO)c1I [IOPAMIDOL]"
  Endpoint Name: "fraction unbound"
  Quantitative Result: 1
- Compound: "CC[C@@H](CO)NCCN[C@@H](CC)CO [ETHAMBUTOL]"
  Endpoint Name: "fraction unbound"
  Quantitative Result: 0.18
- Compound: "COc1ccccc1Oc1c(NS(=O)(=O)c2ccc(C(C)(C)C)cc2)nc(-c2ncccn2)nc1OCCO [BOSENTAN]"
  Endpoint Name: "fraction unbound"
  Quantitative Result: 0.037
- Compound: "Nc1n[n+]([O-])c2ccccc2[n+]1[O-] [TIRAPAZAMINE]"
  Endpoint Name: "fraction unbound"
  Quantitative Result: 0.81
- Compound: "CCCCC1=NC2(CCCC2)C(=O)N1Cc1ccc(-c2ccccc2-c2nnn[nH]2)cc1 [IRBESARTAN]"
  Endpoint Name: "fraction unbound"
  Quantitative Result: 0.1
- Compound: "O=C1c2c(O)ccc(O)c2C(=O)c2c(NCCNCCO)ccc(NCCNCCO)c21 [MITOXANTRONE]"
  Endpoint Name: "fraction unbound"
  Quantitative Result: 0.25
- Compound: "CCOC(=O)C1(c2ccccc2)CCN(C)CC1 [MEPERIDINE]"
  Endpoint Name: "fraction unbound"
  Quantitative Result: 0.42
- Compound: "CC(=O)Nc1nnc(S(N)(=O)=O)s1 [ACETAZOLAMIDE]"
  Endpoint Name: "fraction unbound"
  Quantitative Result: 0.04

----------
Assay Comment: clinical
Experimental Context: human, in vivo, iv, CL
Numbered stars: 1 amine (or outer) side, 2 acyl side, 3 side chain; on linkers, the order of the positions; unused ones are H or OH. Bridge positions count the residues as written; N and C are the ends. Square brackets hold non-standard residues; d marks the D form. Peptide text beside a SMILES is read from it. * marks the point of attachment. X2 = O=C1C[C@@H](C(=O)[*:2])N([*:1])C[C@H]1CS[C@@H]1CN2CCC1CC2; NMePhe(4-NMe2) = CN[C@@H](Cc1ccc(N(C)C)cc1)C(=O)O; Picolinoyl(3-OH) = O=C(c1ncccc1O)*; hArg = N=C(N)NCCCC[C@H](N)C(=O)O; Phg = N[C@H](C(=O)O)c1ccccc1; dAbu = CC[C@@H](N)C(=O)O; Mpa = O=C(O)CCS
Binning of clearance into classes: lower band = under 2 mL/min/kg, central band = from 2 mL/min/kg up to 9 mL/min/kg, upper band = 9 mL/min/kg and over

- Molecule: "COc1ccc2c(c1)c(CC(=O)O)c(C)n2C(=O)c1ccc(Cl)cc1"
  Answer Label: "lower band"
- Molecule: "Cc1cc(O)c2c(=O)c3c(O)cc(O)c4c5c(O)cc(O)c6c(=O)c7c(O)cc(CO)c8c1c2c(c34)c(c65)c78"
  Answer Label: "lower band"
- Molecule: "COc1ccccc1OCCNCC(O)COc1cccc2[nH]c3ccccc3c12 (stereo not drawn)"
  Answer Label: "central band"
- Molecule: "O=C(NCCNCC(O)COc1ccc(O)cc1)N1CCOCC1 (stereo not drawn)"
  Answer Label: "central band"
- Molecule: "CC(=O)OCC1=C(C(=O)O)N2C(=O)[C@@H](NC(=O)Cc3cccs3)[C@H]2SC1"
  Answer Label: "lower band"
- Molecule: "N[C@@H]1CN(c2c(F)cc3c(=O)c(C(=O)O)cn([C@@H]4C[C@@H]4F)c3c2Cl)CC12CC2 [SITAFLOXACIN ANHYDROUS]"
  Answer Label: "central band"
- Molecule: "C[C@@H](O)[C@H]1C(=O)N2C(C(=O)O)=C(S[C@H]3C[C@@H](C(=O)N4CC[C@H](NC(=O)CNC(=N)N)C4)N(C)C3)[C@H](C)[C@H]12"
  Answer Label: "lower band"
- Molecule: "C=CCC1(C(C)C#CCC)C(=O)N=C(O)N(C)C1=O (stereo not drawn)"
  Answer Label: "upper band"
- Molecule: "CCOC(=O)[C@@H]1C2CCC(C[C@@H]1OC(=O)c1ccccc1)N2C (stereo partly drawn)"
  Answer Label: "upper band"
- Molecule: "CN1CCc2cccc3c2[C@H]1Cc1ccc(O)c(O)c1-3"
  Answer Label: "upper band"
- Molecule: "CC#CCC(C)[C@H](O)/C=C/[C@@H]1[C@H]2C/C(=C/CCCC(=O)O)C[C@H]2C[C@H]1O (stereo partly drawn)"
  Answer Label: "upper band"
- Molecule: "CC[C@H]1NC(=O)[C@@H](NC(=O)c2ncccc2O)[C@@H](C)OC(=O)[C@H](c2ccccc2)NC(=O)[C@@H]2CC(=O)[C@H](CS[C@@H]3CN4CCC3CC4)CN2C(=O)[C@H](Cc2ccc(N(C)C)cc2)N(C)C(=O)[C@@H]2CCCN2C1=O [QUINUPRISTIN] ({Picolinoyl(3-OH)}-T[dAbu]P[NMePhe(4-NMe2)][X2][Phg]; ester 1-C)"
  Answer Label: "upper band"
- Molecule: "CC(C)(O)c1ccccc1CC[C@@H](SCC1(CC(=O)O)CC1)c1cccc(/C=C/c2ccc3ccc(Cl)cc3n2)c1"
  Answer Label: "lower band"
- Molecule: "N=C(N)NCCCC[C@@H]1NC(=O)CCSSC[C@@H](C(N)=O)NC(=O)[C@@H]2CCCN2C(=O)[C@H](Cc2c[nH]c3ccccc23)NC(=O)[C@H](CC(=O)O)NC(=O)CNC1=O [EPTIFIBATIDE] ([Mpa][hArg]GDWPC-NH2; disulfide 1-7)"
  Answer Label: "lower band"
- Molecule: "Cc1ncc2n1-c1ccc(Cl)cc1C(c1ccccc1F)=NC2"
  Answer Label: "central band"
- Molecule: "CN[C@@H](C)Cc1ccccc1"
  Answer Label: "central band"
- Molecule: "CCC1(c2cccc(O)c2)CCCCN(C)C1 (stereo not drawn)"
  Answer Label: "upper band"
- Molecule: "CNCC[C@@H](Oc1ccccc1C)c1ccccc1"
  Answer Label: "upper band"
- Molecule: "C[C@H](CCc1ccccc1)NC[C@H](O)c1ccc(O)c(C(N)=O)c1"
  Answer Label: "upper band"
- Molecule: "CO/N=C(\\C(=O)N[C@@H]1C(=O)N2C(C(=O)O)=CCS[C@H]12)c1csc(N)n1"
  Answer Label: "central band"
- Molecule: "CC(=O)NC[C@H]1CN(c2ccc(N3CCOCC3)c(F)c2)C(=O)O1"
  Answer Label: "lower band"

----------
Assay Comment: clinical
Experimental Context: human, in vivo, iv, Vdss
Labelling: Vd reported below 0.4 L/kg becomes condition met; at or above becomes condition not met.

- Molecule: "CCCc1nc2c(C)cc(-c3nc4ccccc4n3C)cc2n1Cc1ccc(-c2ccccc2C(=O)O)cc1"
  Answer Label: "condition not met"
- Molecule: "CC(=O)OCC1=C(C(=O)O)N2C(=O)[C@@H](NC(=O)CSc3ccncc3)[C@H]2SC1 [CEPHAPIRIN]"
  Answer Label: "condition met"
- Molecule: "CC1(C)S[C@@H]2[C@H](NC(=O)[C@H](C(=O)O)c3ccsc3)C(=O)N2[C@H]1C(=O)O [TICARCILLIN]"
  Answer Label: "condition met"
- Molecule: "CN(C)[C@@H]1C(O)=C(C(N)=O)C(=O)[C@@]2(O)C(O)=C3C(=O)c4c(O)cccc4[C@@](C)(O)[C@H]3[C@H](O)[C@@H]12 [OXYTETRACYCLINE]"
  Answer Label: "condition not met"
- Molecule: "COc1ccc(CC2c3cc(OC)c(OC)cc3CC[N+]2(C)CCC(=O)OCCCCCOC(=O)CC[N+]2(C)CCc3cc(OC)c(OC)cc3C2Cc2ccc(OC)c(OC)c2)cc1OC (stereo not drawn)"
  Answer Label: "condition met"
- Molecule: "CN1C(=O)[C@H](O)C[C@H]1c1cccnc1"
  Answer Label: "condition not met"
- Molecule: "c1ccc2c(c1)OCC(C1=NCCN1)O2 (stereo not drawn) [IDAZOXAN]"
  Answer Label: "condition not met"

----------
Assay Comment: clinical
Experimental Context: human, in vivo, iv
Parameter log10(MRT): see the listing below.
Endpoint Name: log10(MRT) (log10 of the value in h)

- Compound: "CN[C@@H]1CCc2[nH]c3ccc(C(N)=O)cc3c2C1"
  log10(MRT): 1.34
- Compound: "Cc1ccc(C(=O)Nc2ccc(S(=O)(=O)O)c3cc(S(=O)(=O)O)cc(S(=O)(=O)O)c23)cc1NC(=O)c1cccc(NC(=O)Nc2cccc(C(=O)Nc3cc(C(=O)Nc4ccc(S(=O)(=O)O)c5cc(S(=O)(=O)O)cc(S(=O)(=O)O)c45)ccc3C)c2)c1"
  log10(MRT): 3.15
- Compound: "COc1cc(Cc2cnc(N)nc2N)cc(OC)c1OC"
  log10(MRT): 1.08
- Compound: "COc1cccc(C2(O)CCCCC2CN(C)C)c1 (centres undefined)"
  log10(MRT): 0.86
- Compound: "O=C(O)c1cc(/N=N/c2ccc(O)c(C(=O)O)c2)ccc1O"
  log10(MRT): -0.01
- Compound: "CC(C)NCC(O)COc1cccc2ccccc12 (centres undefined)"
  log10(MRT): 0.63
- Compound: "COc1ccc2cc1Oc1cc3c(cc1OC)CC[N+](C)(C)[C@H]3Cc1ccc(cc1)Oc1c(OC)c(OC)cc3c1[C@@H](C2)[N+](C)(C)CC3.[I-].[I-] [METOCURINE IODIDE]"
  log10(MRT): 0.75
- Compound: "CCCC[C@@H]1CC(=O)[C@]2(O)O[C@@H]3[C@@H](NC)[C@@H](O)[C@@H](NC)[C@H](O)[C@H]3O[C@@H]2O1"
  log10(MRT): 0.84
- Compound: "Oc1ccc2c(c1)[C@@]13CCCC[C@@]1(O)[C@@H](C2)N(CC1CCC1)CC3"
  log10(MRT): 0.72
- Compound: "COCC(=O)O[C@]1(CCN(C)CCCc2nc3ccccc3[nH]2)CCc2cc(F)ccc2[C@@H]1C(C)C"
  log10(MRT): 1.11
- Compound: "CN1CCN(c2c(F)cc3c(=O)c(C(=O)O)cn(CCF)c3c2F)CC1"
  log10(MRT): 1.04
- Compound: "C[C@H](Cn1cnc2c(N)ncnc21)OCP(=O)(O)O [TENOFOVIR ANHYDROUS]"
  log10(MRT): 0.58
- Compound: "CCCCNC(=O)NS(=O)(=O)c1ccc(C)cc1 [TOLBUTAMIDE]"
  log10(MRT): 0.98
- Compound: "CC(C)(C)NCC(O)COc1cccc2c1CC(O)C(O)C2 (centres undefined)"
  log10(MRT): 1.04
- Compound: "C=C[C@@]1(O)C[N+]2(C)CC[C@H]1C[C@@H]2[C@@H](O)c1ccnc2ccc(OC)cc12"
  log10(MRT): 0.97
- Compound: "CCCc1nc2c(C)cc(-c3nc4ccccc4n3C)cc2n1Cc1ccc(-c2ccccc2C(=O)O)cc1"
  log10(MRT): 1.04
- Compound: "CN1CCN(CCCCN2C(=O)CN(/N=C/c3ccc(-c4ccc(Cl)cc4)o3)C2=O)CC1 [AZIMILIDE]"
  log10(MRT): 2.00
- Compound: "CC(C)(C)NC(=O)[C@@H]1CN(Cc2cccnc2)CCN1C[C@@H](O)C[C@@H](Cc1ccccc1)C(=O)N[C@H]1c2ccccc2C[C@H]1O.O"
  log10(MRT): -0.12
- Compound: "CC(=O)O[C@H]1C(=O)[C@@]2(C)[C@H]([C@H](OC(=O)c3ccccc3)[C@]3(O)C[C@H](OC(=O)[C@H](O)[C@@H](NC(=O)c4ccccc4)c4ccccc4)C(C)=C1C3(C)C)[C@]1(OC(C)=O)CO[C@@H]1C[C@@H]2O"
  log10(MRT): 0.89
- Compound: "COc1ccc(Cl)cc1C(=O)NCCc1ccc(S(=O)(=O)NC(=O)NC2CCCCC2)cc1 [GLYBURIDE]"
  log10(MRT): 0.20
- Compound: "CCc1nc(N)nc(N)c1-c1ccc(Cl)cc1"
  log10(MRT): 2.15
- Compound: "COc1ccc(Cl)cc1[C@]1(F)C(=O)Nc2cc(C(F)(F)F)ccc21"
  log10(MRT): 1.04
- Compound: "CCCCNc1cc(C(=O)O)cc(S(N)(=O)=O)c1Oc1ccccc1 [BUMETANIDE]"
  log10(MRT): 0.04
- Compound: "O=C(NCC1CCCCN1)c1cc(OCC(F)(F)F)ccc1OCC(F)(F)F (centres undefined) [FLECAINIDE]"
  log10(MRT): 1.32
- Compound: "CC(CC(c1ccccc1)c1ccccc1)NC(C)(C)C (centres undefined)"
  log10(MRT): 1.91
- Compound: "CC1(C)C(/C=C/C=C/C=C/C=C2/N(CCCCS(=O)(=O)[O-])c3ccc4ccccc4c3C2(C)C)=[N+](CCCCS(=O)(=O)[O-])c2ccc3ccccc3c21.[Na+]"
  log10(MRT): -1.07
- Compound: "CCC(=O)OCC(=O)[C@@]1(OC(=O)CC)[C@@H](C)C[C@H]2[C@@H]3CCC4=CC(=O)C=C[C@]4(C)[C@@]3(Cl)[C@@H](O)C[C@@]21C [BECLOMETHASONE DIPROPIONATE]"
  log10(MRT): -1.00
- Compound: "O=P1(NCCCl)OCCCN1CCCl (centres undefined) [IFOSFAMIDE]"
  log10(MRT): 0.97
- Compound: "CN1CCOC(c2ccccc2)c2ccccc2C1 (centres undefined)"
  log10(MRT): 0.91
